Each recorded value in this set is attributed to paper PMC2721771.

Target: rat A3 adenosine receptor (Rattus norvegicus, UniProt P28647)
Sequence (P28647 1-320): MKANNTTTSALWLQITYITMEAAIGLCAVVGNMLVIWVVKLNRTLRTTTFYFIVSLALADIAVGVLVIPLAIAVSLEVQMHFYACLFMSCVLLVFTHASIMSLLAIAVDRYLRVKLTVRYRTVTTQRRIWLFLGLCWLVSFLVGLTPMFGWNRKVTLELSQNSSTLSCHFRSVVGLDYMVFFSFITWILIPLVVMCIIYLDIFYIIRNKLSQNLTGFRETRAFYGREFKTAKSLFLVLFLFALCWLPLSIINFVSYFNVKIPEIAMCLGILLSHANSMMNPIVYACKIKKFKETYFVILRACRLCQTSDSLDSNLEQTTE
Measured Property: Ki (nM)
Numeric only. Scale: nM

// query Consider the compound shown here: `CCCOC(=O)c1c(-c2ccccc2)nc(CC)c(C(=O)SCC)c1CCC` What is its recorded Ki?
// result 518
